Target Or System: BACE2 (Homo sapiens, UniProt Q9Y5Z0)
Construct: recombinant BACE2 protein in a final concentration of 0.4 μg/ml
Sequence (Q9Y5Z0 63-518): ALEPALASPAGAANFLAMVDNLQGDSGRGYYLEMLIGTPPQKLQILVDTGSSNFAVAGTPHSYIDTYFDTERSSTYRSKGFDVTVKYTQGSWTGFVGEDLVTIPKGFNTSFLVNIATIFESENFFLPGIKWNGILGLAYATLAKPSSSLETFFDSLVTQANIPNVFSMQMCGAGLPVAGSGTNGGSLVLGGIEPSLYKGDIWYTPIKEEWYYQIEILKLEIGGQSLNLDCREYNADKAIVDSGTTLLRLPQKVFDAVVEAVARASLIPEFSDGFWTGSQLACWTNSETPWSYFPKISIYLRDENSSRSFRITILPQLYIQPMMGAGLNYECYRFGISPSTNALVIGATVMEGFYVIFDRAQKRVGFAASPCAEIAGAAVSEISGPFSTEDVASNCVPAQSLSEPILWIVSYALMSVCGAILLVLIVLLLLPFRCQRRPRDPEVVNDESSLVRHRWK
Experimental Details: BACE2 biochemical FRET based assay
Assay Conditions: recombinant BACE2 0.4 μg/ml, 10 μM substrate, 450 min, pH 5.0; read-out: BIOCHEMICAL FRET BASED ASSAY pIC50 (converted)
Parameter Measured: IC50 (nM)
Write down the numeric answer in nM and omit the unit.

Reference set, count: 4
Compound: CCOc1ncc(C2CC2)c2c1CC1(c3ccc(F)cc3F)N=C(N)SCC1C2 (racemic)
IC50 [nM]: 97.7
//
Compound: COc1ncc(Br)c2c1CC1(c3cc(Br)c(F)cc3F)N=C(N)SCC1C2 (racemic)
IC50 [nM]: 282
//
Compound: COc1nccc2c1C[C@@]1(c3cc(O)ccc3F)N=C(N)SC[C@H]1C2
IC50 [nM]: 6920
//
Compound: COc1nccc2c1C[C@]1(c3cc(-c4cncc(C#N)c4)ccc3F)N=C(N)SC[C@@H]1C2
IC50 [nM]: 123

Bench note: what IC50 did COc1ncc(C#N)c2c1C[C@]1(c3ccccc3F)N=C(N)SC[C@@H]1C2 (racemic) show?
240

Item COCC(=O)Nc1cc(C23Cc4c(ccnc4OC)CC2CSC(N)=N3)c(F)cc1F (single isomer, unassigned) [Compound 198] has what recorded IC50?
501

Which measured IC50 value corresponds to COc1nccc2c1C[C@]1(c3ccc(F)cc3F)N=C(N)SC[C@@H]1C2 ?
44.7

Dear colleague, I am looking for the recorded IC50 of the following compound: COc1ncc(-c2cccnc2)c2c1C[C@]1(c3ccc(F)cc3F)N=C(N)SC[C@@H]1C2 (racemic) [Compound 25]
12

May I ask what IC50 has been recorded for COc1ncc(Br)c2c1C[C@]1(c3ccccc3F)N=C(N)SC[C@@H]1C2 (racemic) ?
77.6

Give its IC50 value. Item: COc1nccc2c1C[C@]1(c3ccccc3)N=C(N)SC[C@@H]1C2 (racemic)
468
